measurementTarget: Neu5Ac(a2-3)Gal(b1-4)GlcNAc(b1-6)[Neu5Ac(a2-3)Gal(b1-3)]GalNAc
testProtocol: glycan array binding signal (z-score within array); higher = stronger binding
conditionParameters: glycan notation: IUPAC condensed, linker removed
About 410 targets per protein were measured; listed, in parts, are those with the strongest signals and a random draw of the rest.
quantity: glycan array binding signal (z-score)

Here is how some binders turned out for glycan array binding signal (z-score).
binder | resultValue
CGL (Crenomytilus grayanus), H2FH31 (protein) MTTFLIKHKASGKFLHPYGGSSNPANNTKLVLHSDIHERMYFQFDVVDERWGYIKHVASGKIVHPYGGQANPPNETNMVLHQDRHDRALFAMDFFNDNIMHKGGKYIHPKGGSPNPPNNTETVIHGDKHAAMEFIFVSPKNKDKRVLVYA | -0.386
MAL-II (Maackia amurensis), P93248 (protein) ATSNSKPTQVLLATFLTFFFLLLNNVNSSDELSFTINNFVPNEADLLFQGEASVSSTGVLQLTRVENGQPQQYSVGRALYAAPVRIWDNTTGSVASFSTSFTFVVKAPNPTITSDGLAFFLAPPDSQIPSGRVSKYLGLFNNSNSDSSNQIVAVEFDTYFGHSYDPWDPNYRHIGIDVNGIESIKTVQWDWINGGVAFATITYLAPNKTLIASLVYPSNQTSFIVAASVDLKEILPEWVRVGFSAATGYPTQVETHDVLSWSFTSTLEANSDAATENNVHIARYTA | 3.13

Now take the following binder into account.
The binder listed as Banana lectin (Musa acuminata) (protein) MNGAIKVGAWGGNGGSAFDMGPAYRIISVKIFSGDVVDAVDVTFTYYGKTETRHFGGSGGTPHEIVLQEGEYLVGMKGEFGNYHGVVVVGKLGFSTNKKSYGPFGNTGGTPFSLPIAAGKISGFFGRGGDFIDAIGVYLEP has a reported glycan array binding signal (z-score) of -0.194
